Molecular target: T1, metallo-beta-lactamase (class B) 5/B/6 (Bacillus cereus, UniProt P14488 P14488:30-256)
T1 sequence: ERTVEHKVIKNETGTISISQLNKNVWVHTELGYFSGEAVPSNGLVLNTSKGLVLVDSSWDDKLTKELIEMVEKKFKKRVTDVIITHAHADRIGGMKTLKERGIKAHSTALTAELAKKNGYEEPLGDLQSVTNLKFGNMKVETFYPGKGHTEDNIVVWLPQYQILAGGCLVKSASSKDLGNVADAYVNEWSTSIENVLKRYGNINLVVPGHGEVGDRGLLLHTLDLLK
Assay: inhibition; single strand control
Conditions: tags: strain 5/B/6; desalted enzyme used for SELEX

{"binder": "ACAGCACCGGATCAT (ssDNA) [ss 15-mer complementary strand]", "IC50 [nM]": 750}
{"binder": "ATGATCCGGTGCTGT (ssDNA) [ss 15-mer top strand]", "IC50 [nM]": 150}
